TARGET_OF_ASSAY: OsSMF1 (Oryza sativa, UniProt Q6ZLB0 1-436)
Sequence: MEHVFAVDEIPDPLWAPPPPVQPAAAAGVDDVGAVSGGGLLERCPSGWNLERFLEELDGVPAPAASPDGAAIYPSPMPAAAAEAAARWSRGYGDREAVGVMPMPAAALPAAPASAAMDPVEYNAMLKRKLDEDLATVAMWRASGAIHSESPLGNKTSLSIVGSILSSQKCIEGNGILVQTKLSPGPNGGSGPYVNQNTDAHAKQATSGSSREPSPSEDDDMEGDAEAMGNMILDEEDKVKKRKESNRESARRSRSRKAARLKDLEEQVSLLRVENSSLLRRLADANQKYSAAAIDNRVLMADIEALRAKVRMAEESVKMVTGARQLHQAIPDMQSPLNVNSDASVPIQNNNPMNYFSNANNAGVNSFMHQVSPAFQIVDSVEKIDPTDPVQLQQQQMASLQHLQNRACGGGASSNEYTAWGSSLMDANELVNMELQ
TEST_METHOD_NOTES: protein-binding microarray (RPBM); PBS, 2% BSA, 51.3 ng/ul salmon testes DNA, 50 uM zinc acetate, 200 nM TF, 25 C, 1 h; high values mean tight binding
MEASUREMENT_SETUP: protein: recombinant; tags: N-terminal polyhistidine and DsRed monomer fusion (pET32a); chain copies: 2; label: CyDye5-dUTP incorporated in the synthesized complementary strand; 3' TTTTT single-stranded linker to array surface; dsDNA, one strand shown
The full ranking holds about 39,000 sequences; the median of “fluorescence intensity (a.u.)” is about 4,300, and the highest 2% start at about 39,000. The sample as a whole holds a higher share of the highest values than the screen did.
Some sequences, each annotated with its measured binding signal.
MEASURED_METRIC: binding signal

> print(dat)
                                biosequence  measured.metric                               result
1  CGGCGAAGTAGCAAGGGTTGAGTCTGCATCATCAACCAATCGGAGTCACCTAGTGCAG   binding signal   3370 fluorescence intensity (a.u.)
2  GCCGAAACGCGAAGTGACAGTGACAAGGGAAGGACGGCCCCGGAGTCACCTAGTGCAG   binding signal   3220 fluorescence intensity (a.u.)
3  GTTCAGAATGTGGTGGCGACGTAAGGTGATTTGGAAGGCGCGGAGTCACCTAGTGCAG   binding signal  43500 fluorescence intensity (a.u.)
4  TTTAGTAGTTTGAAAAGCATACGCGCGGAAACCGAGCAAGCGGAGTCACCTAGTGCAG   binding signal   3190 fluorescence intensity (a.u.)
5  TCCCCTCGCGGCGAACGCGCGCGCGCAACGAGAAGCCAAGCGGAGTCACCTAGTGCAG   binding signal   3200 fluorescence intensity (a.u.)
6  TGGGGCCGTGAGGCCACGTGCCCGGCATGCCACGGTGGAGCGGAGTCACCTAGTGCAG   binding signal  10000 fluorescence intensity (a.u.)
7  ACGTCCACGAGTCCATGTCATGACACACCCCAAGTTGCTGCGGAGTCACCTAGTGCAG   binding signal   5510 fluorescence intensity (a.u.)
8  CAGGTGGTGGTGGCCATTAGTTAGTGGCAAATGTGGAAGGCGGAGTCACCTAGTGCAG   binding signal   3220 fluorescence intensity (a.u.)
9  AGGAATGCATTTGTGGTGGGTGCAGGTGCGCGGGTGGCGACGGAGTCACCTAGTGCAG   binding signal   3340 fluorescence intensity (a.u.)
